- method description: Inhibitory concentration against Aggrecanase
pIC50: −log10 of the molar value.
measured attribute: pIC50

Below, each entry is followed by its recorded pIC50 result.
| smiles data | pIC50 |
| --- | --- |
| Cc1ccccc1COc1ccc(S(=O)(=O)N2C[C@H](O)CC(C)(C)[C@@H]2C(=O)NO)cc1 | 7.42 |
| CC1(C)C[C@@H](O)CN(S(=O)(=O)c2ccc(OCc3ccncc3Cl)cc2)[C@H]1C(=O)NO | 7.74 |

I: CC1(C)C[C@@H](O)CN(S(=O)(=O)c2ccc(OCc3ccccc3Br)cc2)[C@H]1C(=O)NO
II: Cc1ccc(F)cc1COc1ccc(S(=O)(=O)N2C[C@H](O)CC(C)(C)[C@@H]2C(=O)NO)cc1
III: CC1(C)C[C@@H](O)CN(S(=O)(=O)c2ccc(OCc3ccc(Cl)cc3Cl)cc2)[C@H]1C(=O)NO
Output the entries ranked by pIC50 from maximum down to minimum. Give your ranking as a list of the labels in the requested order. III, I, II
(III: 8.68, I: 7.80, II: 7.40)
